- Tested target: T1, NHERF3_4, Q5T2W1
- T1 sequence (Q5T2W1 373-468, limits assumed, looked up): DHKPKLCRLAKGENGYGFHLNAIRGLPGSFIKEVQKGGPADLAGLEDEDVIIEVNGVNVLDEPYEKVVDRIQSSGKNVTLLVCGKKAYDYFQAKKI
- Assay summary: holdup assay
- Set-up: key: below the threshold = too weak to quantify, mostly under pKd 3.1 to 4
- Condition info: plain residues with an end cap or a label only (N-terminal biotin on a linker: ado-ado)
Reported property: pKd

Illustrative cases are given below, each with its answer.
- Binder: "TKGPRGPTRV [SAPCD1, Q5SSQ6]"
  Result: "below the threshold"
- Binder: "QHKTQLQTLI [BPIFA2, Q96DR5]"
  Result: 3.48
- Binder: "VDSTVKVWTC [TRAF7, Q6Q0C0]"
  Result: "below the threshold"
- Binder: "HLRARKSEWV [GJD4, Q96KN9]"
  Result: "below the threshold"
- Binder: "QMNQTLPVQV [EPHB3, P54753]"
  Result: 3.48

Task: Query pKd for KSGKQTMLVV [TRIM29, Q14134;Q14134-2]
Result: below the threshold

Task: Query pKd for DTTVPESEDL [MYOZ2, Q9NPC6]
Result: below the threshold

Task: Query pKd for QSARLWETSI [ADAM22, Q9P0K1]
Result: below the threshold
